Just for reference, BigSolDB 2.1 is where these values come from.

- Conditions Used: in ethanol, 313.15 K
Metric: solubility (mole fraction)
One number for each entry.

Please report solubility (mole fraction) for the following compound: COc1cc(C=O)ccc1O
0.105

* * *

- Conditions Used: in ethanol, 293.15 K
Metric: solubility (mole fraction)
One number for each entry.

Provide measured solubility (mole fraction) value, entry: COc1cc(C=O)ccc1O
0.0713

* * *

- Conditions Used: in water, 303.15 K
Metric: solubility (mole fraction)
Answers are plain numbers.

Give solubility (mole fraction) for the following molecule: COc1cc(C=O)ccc1O
0.00179

* * *

- Conditions Used: in water, 313.15 K
Metric: solubility (mole fraction)
Give bare numbers.

Hello, please tell me recorded solubility (mole fraction) for this one: COc1cc(C=O)ccc1O
0.00234
